Readings of melting point for the listed compounds
OBSERVABLE: melting point

{"columns": ["COMPOUND", "REPORTED"],
 "data": [
  ["Nc1n[nH]c2c1c1cc(Cl)c(Cl)cc1n2C1OC(CO)C(O)C1O (stereo unspecified)", "198 to 201 °C"],
  ["O=C(O)c1cnc2sccc2c1Cl", "172 to 174 °C"],
  ["COC(=O)c1ccc(-n2ccc(C)n2)cc1OC", "167 to 169 °C"],
  ["O=C(O)C(c1ccc([N+](=O)[O-])cc1)N1CCCC1 (stereo unspecified)", "103 to 105 °C"],
  ["CCN(C(=O)c1ccccc1C(=O)c1ccc(Cl)cc1)C(C)(C)CNS(=O)(=O)c1ccc(C)cc1", "175 to 176 °C"],
  ["CNc1nc(C)c(C(C)=O)s1", "164 to 165 °C"]
]}

----------
Quick reference: melting point of the listed items.

{"columns": ["COMPOUND", "melting point"],
 "data": [
  ["CCNC(=O)Cn1nc(Nc2ccc3c(c2)OC(F)(F)O3)nc1-c1cc(C)nc(C)c1", "242 °C"],
  ["C=C1N(C(C)C)C(=O)OC12CCN(C(=O)NC(=O)c1cccnc1Cl)CC2", "186 to 188 °C"],
  ["CN(C)c1nc2c(NCc3ccccc3)ncnc2n1C1OC(CO)C(O)C1O (stereo not drawn)", "152 to 156 °C"],
  ["CC(=O)N1CCC(C)(C)c2cc(F)cc(CCN3CCN(c4noc5ccccc45)CC3)c21", "112 °C"],
  ["CCCCOC(=O)[C@H]1CN(c2ccc(C3CCSCC3)c(F)c2)C(=O)O1", "98 to 100 °C"],
  ["COCCc1cc(N)n2nc(SC)c(S(=O)(=O)c3ccccc3)c2n1", "186 to 187 °C"],
  ["O=c1[nH]c(-c2ccc(CCN3CCN(c4cccc5ccccc45)CC3)cc2)cs1", "307 to 309 °C"],
  ["CC(=O)OCCn1c(C(=O)Nc2ccc(OCC(C)(C)C)c(C#N)c2)cc2ccccc21", "169 to 170 °C"],
  ["CC(C)(C)OC(=O)NC(CNC(=O)Nc1ccccc1)C(=O)OCc1ccccc1 (stereo not drawn)", "48 to 50 °C"],
  ["CC(=O)C(=[N+]=[N-])C(=O)CCCCCCCCCc1ccc(S(=O)(=O)Cl)cc1", "48.5 to 50 °C"],
  ["O=C(OCc1ccccc1)c1ccc(OC(=O)c2ccc(C(=O)Oc3ccc(C(=O)OCc4ccccc4)cc3)cc2)cc1", "186 to 187 °C"],
  ["CCCOc1ccc([N+](=O)[O-])cc1[N+](=O)[O-]", "84 to 86 °C"],
  ["O=C1C=C(Br)C(=CBr)O1", "97 to 98 °C"],
  ["Cc1nc(-c2ccc(-c3cscn3)c(C)c2)c(-c2ccc(S(C)(=O)=O)c(F)c2)o1", "177 to 178 °C"],
  ["O=C(O)c1[nH]c2cc(Cl)cc(Cl)c2c1C=C1CCNN(c2ccccc2)C1=O", "> 250 °C"],
  ["CCC(C(=O)c1ccc(Cl)cc1)n1ncn(-c2ccc(N3CCNCC3)cc2)c1=O (stereo not drawn)", "176 °C"],
  ["CCCc1c(OCCC(=O)O)ccc(C(C)=O)c1O", "142 to 146 °C"],
  ["CC(C)(C)c1cc(CCc2ccccc2NC(=O)NC2CCCCC2)cc(C(C)(C)C)c1O", "198 to 200 °C"],
  ["Nc1ccc2ccccc2c1-c1c(P(c2ccccc2)c2ccccc2)ccc2ccccc12", "105 °C"],
  ["CCCCCCCCCCCCCCCCCCCCCC(=O)NN", "117 °C"],
  ["CCCCCc1cnc(-c2ccc(-c3ccc(Br)cc3)cc2)nc1", "137 °C"],
  ["COc1ccc(CN(C)CCCOc2cccc(NC(=O)c3cccc4c(=O)c5cccc(OC)c5[nH]c34)c2)cc1OC", "124 °C"],
  ["CC(=O)Nc1ccc(OC(F)(F)C(F)F)cc1[N+](=O)[O-]", "80 to 81 °C"],
  ["Cc1nc2cc(Br)cc(Br)c2o1", "122 to 124 °C"],
  ["O=S(Sc1ccccc1)c1ccccc1 (stereo not drawn)", "69 to 70 °C"],
  ["N#Cc1ccc(N(Cc2ccc3c(c2)CNS(=O)(=O)O3)n2ccnc2)cc1", "190 °C"],
  ["CCCCCCc1ccc(N2C=CC(=C=C3C(C#N)C(=C(C#N)C#N)OC3(C)C)C=C2)cc1 (stereo not drawn)", "193 °C"],
  ["O=[N+]([O-])c1ccc(I)c(-c2cc([N+](=O)[O-])ccc2I)c1", "230 to 232 °C"],
  ["O=C1C=CCCC=CCCC=CCCC=C1", "30 to 37 °C"],
  ["O=C(O)c1ccc2cc(-c3ccc(CCCO)c(C45CC6CC(CC(C6)C4)C5)c3)ccc2c1", "262 °C"],
  ["CC(C#N)c1ccc(CCc2ccccc2C(=O)O)cc1 (stereo not drawn)", "73 °C"],
  ["Cc1cnc2cc(NS(=O)(=O)c3cccc(Cl)c3C)ccc2n1", "159 °C"],
  ["CCOC(=O)C(C#N)C1(C#N)C(=O)N(Cc2ccc(C)cc2)c2c(C)cccc21 (stereo not drawn)", "128 to 130 °C"],
  ["CCSc1cc2c(cc1SCC)C(=O)c1c(c(Cl)c3cc(SCC)c(SCC)cc3c1Cl)C2=O", "> 260 °C"],
  ["CCC(C=CC(C)C1CCC2C3CCC4=CC(=O)CCC4(C)C3CCC12C)C(C)C (stereo not drawn)", "121 to 123 °C"],
  ["COCOc1ccc(C(=O)OC)c(OCc2ccc(Cl)cc2Cl)c1C", "98.8 to 99 °C"],
  ["CN(C)c1ccc(C2(c3ccc(N(C)C)cc3N(C)C)OC(=O)c3ccccc32)c(N(C)C)c1", "186 to 188 °C"],
  ["c1ccc(-c2nc(N3CCN(c4ccccn4)CC3)c3ccccc3n2)cc1", "164 to 166 °C"]
]}
